Target: MAP2K2 (Homo sapiens, UniProt P36507)
Sequence (P36507 whole entry): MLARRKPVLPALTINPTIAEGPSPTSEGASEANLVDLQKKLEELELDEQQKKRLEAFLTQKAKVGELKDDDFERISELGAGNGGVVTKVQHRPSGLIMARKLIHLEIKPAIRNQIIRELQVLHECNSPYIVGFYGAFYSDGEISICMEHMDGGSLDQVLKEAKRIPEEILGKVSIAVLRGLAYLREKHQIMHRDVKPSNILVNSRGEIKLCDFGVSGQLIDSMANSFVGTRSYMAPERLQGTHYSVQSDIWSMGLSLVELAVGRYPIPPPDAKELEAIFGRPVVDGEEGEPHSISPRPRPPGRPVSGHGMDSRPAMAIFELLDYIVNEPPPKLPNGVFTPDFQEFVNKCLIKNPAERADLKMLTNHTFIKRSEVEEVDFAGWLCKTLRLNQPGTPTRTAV
Assay: biochemical
Design: species or system HEK293/K-562/placenta mixed human extract; Kinobeads chemoproteomic competition binding, quantified by TMT LC-MS/MS, dose response up to 20 uM
pIC50: −log10 of the molar value.
Measurement name: pIC50

- COc1nc(N[C@H]2CC[C@H](NS(=O)(=O)CC(C)C)CC2)nc2[nH]nc(N3CCOC[C@H]3C)c12: ≤ 4.70

---

Target: IKBKB (Homo sapiens, UniProt O14920)
Sequence (O14920 whole entry): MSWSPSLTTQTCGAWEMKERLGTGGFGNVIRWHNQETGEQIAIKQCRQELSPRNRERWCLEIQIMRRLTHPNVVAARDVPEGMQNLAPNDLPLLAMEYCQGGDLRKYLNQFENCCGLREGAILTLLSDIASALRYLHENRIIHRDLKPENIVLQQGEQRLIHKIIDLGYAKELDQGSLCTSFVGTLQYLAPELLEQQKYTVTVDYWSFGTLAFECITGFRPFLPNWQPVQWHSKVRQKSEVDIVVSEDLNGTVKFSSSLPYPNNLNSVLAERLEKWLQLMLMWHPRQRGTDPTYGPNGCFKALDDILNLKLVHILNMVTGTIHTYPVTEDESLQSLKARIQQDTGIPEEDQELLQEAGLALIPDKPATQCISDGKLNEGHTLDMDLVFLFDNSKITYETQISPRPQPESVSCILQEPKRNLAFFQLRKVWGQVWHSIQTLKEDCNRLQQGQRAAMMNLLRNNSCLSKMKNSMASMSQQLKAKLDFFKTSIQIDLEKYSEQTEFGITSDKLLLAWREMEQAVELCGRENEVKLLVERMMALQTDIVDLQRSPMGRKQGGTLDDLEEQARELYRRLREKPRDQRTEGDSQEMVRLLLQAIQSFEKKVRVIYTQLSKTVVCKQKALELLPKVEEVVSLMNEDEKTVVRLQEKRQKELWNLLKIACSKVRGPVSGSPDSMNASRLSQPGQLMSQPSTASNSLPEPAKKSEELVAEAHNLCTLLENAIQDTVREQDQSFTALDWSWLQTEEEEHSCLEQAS
Assay: biochemical
Design: species or system HEK293/K-562/placenta mixed human extract; Kinobeads chemoproteomic competition binding, quantified by TMT LC-MS/MS, dose response up to 20 uM
Measurement name: IC50

* COc1ccccc1-c1n[nH]c2nc(N[C@H]3CC[C@H](NS(=O)(=O)CCC(F)(F)F)CC3)nc(OC)c12 | ≥ 20 µM
